Conditions: in 2-ethoxyethanol, 318.15 K
OBSERVABLE: solubility (mole fraction)

INSERT INTO measurements (smiles_repr, observable, measured_value) VALUES
  ('Cl.N=C(N)N', 'solubility (mole fraction)', 0.349);

###

Conditions: in ethanol, 283.15 K
OBSERVABLE: solubility (mole fraction)

INSERT INTO measurements (smiles_repr, measured_value) VALUES
  ('Cl.N=C(N)N', 0.0916);

###

Details: in isopropanol, 278.15 K
OBSERVABLE: solubility (mole fraction)

INSERT INTO measurements (smiles_repr, observable, measured_value) VALUES
  ('Cl.N=C(N)N', 'solubility (mole fraction)', 0.0552);

###

Conditions: in 2-ethoxyethanol, 288.15 K
OBSERVABLE: solubility (mole fraction)

INSERT INTO measurements (smiles_repr, measured_value) VALUES
  ('Cl.N=C(N)N', 0.275);

###

Settings: in 2-butoxyethanol, 308.15 K
OBSERVABLE: solubility (mole fraction)

INSERT INTO assay_data (smiles_repr, observable, measured_value) VALUES
  ('Cl.N=C(N)N', 'solubility (mole fraction)', 0.185);

###

Details: in NMP, 323.15 K
OBSERVABLE: solubility (mole fraction)

INSERT INTO assay_data (smiles_repr, measured_value) VALUES
  ('Cl.N=C(N)N', 0.253);

###

Conditions: in methanol, 278.15 K
OBSERVABLE: solubility (mole fraction)

INSERT INTO assay_data (smiles_repr, observable, measured_value) VALUES
  ('Cl.N=C(N)N', 'solubility (mole fraction)', 0.156);

###

Conditions: in 2-ethoxyethanol, 293.15 K
OBSERVABLE: solubility (mole fraction)

INSERT INTO assay_data (smiles_repr, observable, measured_value) VALUES
  ('Cl.N=C(N)N', 'solubility (mole fraction)', 0.284);

###

Conditions: in ethanol, 323.15 K
OBSERVABLE: solubility (mole fraction)

INSERT INTO measurements (smiles_repr, observable, measured_value) VALUES
  ('Cl.N=C(N)N', 'solubility (mole fraction)', 0.172);

###

Details: in methanol, 293.15 K
OBSERVABLE: solubility (mole fraction)

INSERT INTO measurements (smiles_repr, observable, measured_value) VALUES
  ('Cl.N=C(N)N', 'solubility (mole fraction)', 0.191);

###

Conditions: in 2-ethoxyethanol, 278.15 K
OBSERVABLE: solubility (mole fraction)

INSERT INTO measurements (smiles_repr, measured_value) VALUES
  ('Cl.N=C(N)N', 0.252);

###

Conditions: in DMF, 288.15 K
OBSERVABLE: solubility (mole fraction)

INSERT INTO measurements (smiles_repr, observable, measured_value) VALUES
  ('Cl.N=C(N)N', 'solubility (mole fraction)', 0.368);

###

Conditions: in methanol, 323.15 K
OBSERVABLE: solubility (mole fraction)

INSERT INTO results (smiles_repr, measured_value) VALUES
  ('Cl.N=C(N)N', 0.265);

###

Details: in DMAc, 288.15 K
OBSERVABLE: solubility (mole fraction)

INSERT INTO results (smiles_repr, measured_value) VALUES
  ('Cl.N=C(N)N', 0.302);

###

Conditions: in DMF, 278.15 K
OBSERVABLE: solubility (mole fraction)

INSERT INTO assay_data (smiles_repr, measured_value) VALUES
  ('Cl.N=C(N)N', 0.326);

Taken from BigSolDB 2.1.
